Values compiled from PubChem BioAssay AID1963868.

tested on: KRAS PDC tumor spheroids (HUVEC+MSC), viability; experiment: Anticancer human tumor 254851-301-R-J1-PDC patient-derived colon carcinoma cell line growth inhibition [KRAS2]; settings: second compound 3.16 µM; first compound 0.01 µM; active = viability on the fitted dose curve at most 10% of control; inactive = the rest;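 also: spheroids exposed to compounds for seven days before readout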
Returns: one label drawn from T for active, F for inactive

[
  {
    "Compound": "CC(=O)Nc1cccc(-n2c(=O)n(C3CC3)c(=O)c3c(Nc4ccc(I)cc4F)n(C)c(=O)c(C)c32)c1 + COc1cc2nc(C)nc(NC(C)c3cc(N)cc(C(F)(F)F)c3)c2cc1OC1CCOC1",
    "Group": "T"
  },
  {
    "Compound": "CC(C)n1nc(-c2ccc3oc(N)nc3c2)c2c(N)ncnc21 + COc1cc2nc(C)nc(NC(C)c3cc(N)cc(C(F)(F)F)c3)c2cc1OC1CCOC1",
    "Group": "F"
  },
  {
    "Compound": "Cn1ncnc1[C@H]1c2n[nH]c(=O)c3cc(F)cc(c23)N[C@@H]1c1ccc(F)cc1 + COc1cc2nc(C)nc(NC(C)c3cc(N)cc(C(F)(F)F)c3)c2cc1OC1CCOC1",
    "Group": "F"
  },
  {
    "Compound": "Cn1ncnc1[C@H]1c2n[nH]c(=O)c3cc(F)cc(c23)N[C@@H]1c1ccc(F)cc1 + CC1OCC2(CCN(c3cnc(Sc4ccnc(N)c4Cl)c(N)n3)CC2)C1N",
    "Group": "F"
  },
  {
    "Compound": "CC1COCCN1c1cc(-c2ccnn2C)c2ccnc(-c3ccn[nH]3)c2n1 (stereo unspecified) + C=CC(=O)N1CCN(c2nc(=O)n(-c3c(C)ccnc3C(C)C)c3nc(-c4c(O)cccc4F)c(F)cc23)C(C)C1",
    "Group": "F"
  },
  {
    "Compound": "CCN1CCN(Cc2ccc(Nc3ncc(F)c(-c4cc(F)c5nc(C)n(C(C)C)c5c4)n3)nc2)CC1 + C=CC(=O)N1CCN(c2nc(OCC3CCCN3C)nc3c2CCN(c2cccc4cccc(C)c24)C3)CC1CC#N",
    "Group": "F"
  }
]

### Prompt Which outcome was entered for the compound CCN1CCN(Cc2ccc(Nc3ncc(F)c(-c4cc(F)c5nc(C)n(C(C)C)c5c4)n3)nc2)CC1 + CC1OCC2(CCN(c3cnc(Sc4ccnc(N)c4Cl)c(N)n3)CC2)C1N in this test?
### Response F

### Prompt Which outcome was entered for the compound CC1COCCN1c1cc(-c2ccnn2C)c2ccnc(-c3ccn[nH]3)c2n1 (stereo unspecified) + CC1OCC2(CCN(c3cnc(Sc4ccnc(N)c4Cl)c(N)n3)CC2)C1N in this test?
### Response F
